target: Recombinant human EIF2AK3 (PERK) catalytic domain (amino acids 536-1116) (Homo sapiens (Human)); experiment: PERK In Vitro Activity Assay (isolated), TR-FRET kinase assay; conditions: isolated PERK enzyme, 1.5 μM ATP, read-out: Biochemical IC50
Sequence (Q9NZJ5 536-1116): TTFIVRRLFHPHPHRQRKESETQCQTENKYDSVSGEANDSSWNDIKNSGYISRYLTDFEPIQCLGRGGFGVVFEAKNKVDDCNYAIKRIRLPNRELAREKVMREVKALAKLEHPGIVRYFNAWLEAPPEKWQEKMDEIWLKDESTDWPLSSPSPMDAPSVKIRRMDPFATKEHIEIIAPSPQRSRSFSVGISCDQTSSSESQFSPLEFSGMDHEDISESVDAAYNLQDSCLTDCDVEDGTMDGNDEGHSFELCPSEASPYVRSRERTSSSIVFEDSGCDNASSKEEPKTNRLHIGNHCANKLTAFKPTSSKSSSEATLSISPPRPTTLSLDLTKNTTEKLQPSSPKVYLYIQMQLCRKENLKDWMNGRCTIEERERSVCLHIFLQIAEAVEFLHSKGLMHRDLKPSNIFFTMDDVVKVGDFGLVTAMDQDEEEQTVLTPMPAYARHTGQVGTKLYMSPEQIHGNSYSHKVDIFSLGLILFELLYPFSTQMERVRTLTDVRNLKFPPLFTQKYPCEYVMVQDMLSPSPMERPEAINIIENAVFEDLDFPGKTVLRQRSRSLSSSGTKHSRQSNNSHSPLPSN
pIC50: −log10 of the molar value.
ENDPOINT: pIC50

Below, each entry is followed by its recorded pIC50 result.
{"COMPOUND": "[2H]C([2H])([2H])c1nc(-c2ccc(NC(=O)C(O)c3cccc(Cl)c3)c(F)c2F)c2c(N)ncc(C(F)(F)F)n12 (stereo not drawn) [Example 142]", "pIC50": "7.60 to 9.00"}
{"COMPOUND": "[2H]C([2H])([2H])c1nc(-c2ccc(NC(=O)C(O)c3cccc(C(F)(F)F)c3)cc2C)c2c(N)ncc(C)n12 (stereo not drawn) [Example 17]", "pIC50": "7.60 to 9.00"}

Please look at the following compound next.
Sure, the documented pIC50 for [2H]C([2H])([2H])c1nc(-c2ccc(NC(=O)C(O)c3cccc(C(F)(F)F)c3)cc2F)c2c(N)ncc(C(F)(F)F)n12 (stereo not drawn) [Example 98] is 7.60 to 9.00
